- Read-out: CD69, CD69 (gene 969)
- EXPERIMENTAL_PROTOCOL: BSK_IMphg_CD69: BioMAP Diversity Plus: IMphg Assay for CD69 Biomarker Activity (AID 2284257)
- PARTICULARS: primary human endothelial cells with macrophages
Active and inactive are the calls of the source. How the source made its calls: active means hit-call score of the fitted dose curve at least 0.9, where 1 is the maximum; inactive means score below 0.9.
MEASUREMENT_TYPE: outcome

FC(F)(F)C(F)(F)C(F)(F)C(F)(F)C(F)(F)C(F)(F)C(F)(F)C(F)(F)F
inactive
Cc1ccc(S(=O)(=O)OCC(F)(F)C(F)(F)C(F)(F)C(F)(F)C(F)(F)C(F)F)cc1
inactive
OCC(F)(F)C(F)(F)C(F)(F)C(F)F
inactive
N=C(N)C(F)(F)C(F)(F)C(F)(F)C(F)(F)C(F)(F)C(F)(F)C(F)(F)F
inactive
OCC(F)(F)C(F)(F)C(F)(F)C(F)(F)C(F)(F)C(F)F
inactive

// for each compound in input: emit outcome
1. C=C(C)C(=O)OCC(F)(F)C(F)(F)C(F)(F)F
2. FC(F)(F)C(F)(F)C(F)(F)C(F)(F)C(F)(F)C(F)(F)C(F)(F)Br
3. C=CC(=O)OCC(F)(F)C(F)(F)C(F)(F)C(F)(F)C(F)(F)C(F)(F)C(F)(F)F
4. O=C(CC(=O)C(F)(F)C(F)(F)F)C(F)(F)F

["inactive", "inactive", "inactive", "inactive"]

FYI, the data here is from PubChem BioAssay (EPA / NIEHS).
